Reference source: ChEMBL document CHEMBL4368939

SYSTEM: Tryptophan 2,3-dioxygenase (Homo sapiens, UniProt P48775)
Sequence (P48775 whole entry, looked up): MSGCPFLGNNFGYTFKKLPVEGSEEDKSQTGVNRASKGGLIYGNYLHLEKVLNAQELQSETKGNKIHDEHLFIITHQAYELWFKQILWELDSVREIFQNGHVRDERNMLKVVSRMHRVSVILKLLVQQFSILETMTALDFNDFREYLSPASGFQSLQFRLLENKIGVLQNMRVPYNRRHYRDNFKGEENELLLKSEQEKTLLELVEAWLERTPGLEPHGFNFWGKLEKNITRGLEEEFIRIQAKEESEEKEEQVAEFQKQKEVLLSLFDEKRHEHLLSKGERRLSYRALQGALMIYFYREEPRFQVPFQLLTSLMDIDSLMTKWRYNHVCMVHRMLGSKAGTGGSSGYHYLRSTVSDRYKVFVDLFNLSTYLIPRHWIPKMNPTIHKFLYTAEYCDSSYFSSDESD
EXPERIMENT DESCRIPTION: Inhibition of human TDO expressed in Escherichia coli at 10 uM using L-tryptophan as substrate after 1 hr by UV absorption analysis
Active and inactive are the calls of the source. No cut-off for these calls is given here.
VALUE TYPE: inhibition

Look over these answered cases.
COMPOUND	SYSTEM	inhibition
Brc1cc(NCc2cccc3sccc23)c2cn[nH]c2c1	Tryptophan 2,3-dioxygenase (Homo sapiens, UniProt P48775)	56%
Oc1ccc(CNc2cc(Br)cc3[nH]ncc23)c(O)c1	Tryptophan 2,3-dioxygenase (Homo sapiens, UniProt P48775)	inactive
Oc1ccc(CNc2cc(Br)cc3[nH]ncc23)cc1Cl	Tryptophan 2,3-dioxygenase (Homo sapiens, UniProt P48775)	19%
Brc1cc(NCc2ccco2)c2cn[nH]c2c1	Tryptophan 2,3-dioxygenase (Homo sapiens, UniProt P48775)	64%
Brc1cc(NCc2ccncc2)c2cn[nH]c2c1	Tryptophan 2,3-dioxygenase (Homo sapiens, UniProt P48775)	55%
NS(=O)(=O)c1ccc(CNc2cc(Br)cc3[nH]ncc23)cc1	Tryptophan 2,3-dioxygenase (Homo sapiens, UniProt P48775)	75%
Nc1nc(CNc2cc(Br)cc3[nH]ncc23)cs1	Tryptophan 2,3-dioxygenase (Homo sapiens, UniProt P48775)	73%
Nc1ccc2ccccc2c1CNc1cc(Br)cc2[nH]ncc12	Tryptophan 2,3-dioxygenase (Homo sapiens, UniProt P48775)	inactive

Entry under review: CC(Nc1cc(Br)cc2[nH]ncc12)c1ccc([N+](=O)[O-])cc1 (centres undefined) . Reported inhibition?
56%

Reported inhibition, compound Brc1cc(NCc2ccc3c(c2)OCO3)c2cn[nH]c2c1 : ____
62%
